Experimental target: human Dopamine D2L receptor (Homo sapiens, UniProt P14416)
Construct: expressed in transfected cells; host or cells: CHO cells
Sequence (P14416 whole entry): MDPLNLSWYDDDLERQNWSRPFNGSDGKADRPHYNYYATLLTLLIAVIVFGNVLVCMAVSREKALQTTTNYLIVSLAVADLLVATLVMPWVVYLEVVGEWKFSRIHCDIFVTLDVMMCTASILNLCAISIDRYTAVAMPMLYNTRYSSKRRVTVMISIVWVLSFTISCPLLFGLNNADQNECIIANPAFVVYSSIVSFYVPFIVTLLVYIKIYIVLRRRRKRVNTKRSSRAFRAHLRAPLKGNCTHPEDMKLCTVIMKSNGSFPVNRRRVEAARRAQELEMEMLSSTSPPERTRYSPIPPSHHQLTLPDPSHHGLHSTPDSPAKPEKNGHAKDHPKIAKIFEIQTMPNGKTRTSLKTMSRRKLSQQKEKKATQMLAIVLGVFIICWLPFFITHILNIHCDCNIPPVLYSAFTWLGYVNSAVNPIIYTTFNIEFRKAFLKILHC
Assay method text: In vitro binding affinity for human D2L receptor ([3H]Spiperone)
Study conditions: membranes of human D2L receptor-transfected CHO cells, read-out: D2 (pIC50) (converted)
Please respond with 1 (yes) when measured IC50 is strictly beneath 0.5 µM, and with 0 (no) in all other cases.

Look over these answered cases.
# Molecule, Experimental target, Class assignment
records = [
    ("OC1CCN(C[C@H]2C[C@@H]3c4ccccc4Sc4sccc4[C@H]3O2)C1 (relative stereo)", "human Dopamine D2L receptor (Homo sapiens, UniProt P14416)", "1 (yes)"),
    ("CN(C)C[C@@H]1C[C@@H]2c3ccccc3Sc3sccc3[C@H]2O1", "human Dopamine D2L receptor (Homo sapiens, UniProt P14416)", "1 (yes)"),
    ("CN(C)CC1CC2c3ccccc3Cc3sccc3C2O1 (stereo not drawn)", "human Dopamine D2L receptor (Homo sapiens, UniProt P14416)", "0 (no)"),
    ("CNCC1CC2c3ccccc3Cc3sccc3C2O1 (stereo not drawn) [Compound 7]", "human Dopamine D2L receptor (Homo sapiens, UniProt P14416)", "0 (no)"),
]

Here is another molecule to look at.
# strict comparison: is reported IC50 < 0.5 µM? input = CNC[C@H]1C[C@@H]2c3ccccc3Sc3sccc3[C@H]2O1 (racemic) [Compound 20] 0 (no)
